Assay Remarks: In vivo plasma protein binding in Crj:CD(SD)IGS rat at 0.125 mg/hr, iv administered as continuous infusion by ultrafiltration method in presence of 16 mg/hr/kg probenecid
Format: ADME, organism-based
Study Conditions: with probenecid 16 mg/hr/kg, read-out: PPB (converted)
Recorded Metric: fraction unbound
Just the number, please, no unit attached.

q: Item N[14c]1[14cH][14cH][14c](OS(=O)(=O)O)[14cH][14c]1Cl has what recorded fraction unbound?
a: 0.078

---

Assay Remarks: In vivo plasma protein binding in Crj:CD(SD)IGS rat at 0.125 mg/hr, iv administered as continuous infusion by ultrafiltration method
Type: ADME, organism-based
Study Conditions: read-out: PPB (converted)
Recorded Metric: fraction unbound
Just the number, please, no unit attached.

q: Item N[14c]1[14cH][14cH][14c](OS(=O)(=O)O)[14cH][14c]1Cl has what recorded fraction unbound?
a: 0.088

---

Assay Remarks: In vivo plasma protein binding in Crj:CD(SD)IGS rat at 0.125 mg/hr, iv administered as continuous infusion by ultrafiltration method in presence of 31 mg/hr/kg probenecid
Assay type: ADME, organism-based
Study Conditions: with probenecid 31 mg/hr/kg, read-out: PPB (converted)
Recorded Metric: fraction unbound

q: Item N[14c]1[14cH][14cH][14c](OS(=O)(=O)O)[14cH][14c]1Cl has what recorded fraction unbound?
a: 0.197

---

Assay Remarks: Plasma concentration in Crj:CD(SD)IGS rat at 0.125 mg/hr, iv administered as continuous infusion measured after 3 hrs by HPLC based liquid scintillation counting analysis in presence of probenecid
Assay type: ADME, organism-based
Study Conditions: with probenecid (dose not stated)
Recorded Metric: concentration at 3 h
Please answer using the number first and the unit second.

q: Item N[14c]1[14cH][14cH][14c](OS(=O)(=O)O)[14cH][14c]1Cl has what recorded concentration at 3 h?
a: 3600 ng/mL

---

Assay Remarks: Drug uptake in Crj:CD(SD)IGS rat plasma at 0.5 mg/kg, iv administered as bolus dose after 5 mins by HPLC-based liquid scintillation counting analysis
Type: ADME, organism-based
Set-up: dose 0.5 mg/kg, route intravenous
Recorded Metric: concentration at 5 min (ng/mL)
Form entry: value (ng/mL) — number only.

q: Item N[14c]1[14cH][14cH][14c](OS(=O)(=O)O)[14cH][14c]1Cl has what recorded concentration at 5 min?
a: 2290

---

Assay Remarks: Total body clearance in Crj:CD(SD)IGS rat at 0.125 mg/hr, iv administered as continuous infusion by HPLC based liquid scintillation counting analysis
Format: ADME, organism-based
Study Conditions: in vivo
Recorded Metric: clearance (mL/min/kg)
Form entry: value (mL/min/kg) — number only.

q: Item N[14c]1[14cH][14cH][14c](OS(=O)(=O)O)[14cH][14c]1Cl has what recorded clearance?
a: 11.4

---

Assay Remarks: Total body clearance in Crj:CD(SD)IGS rat at 0.5 mg/kg, iv administered as bolus dose by HPLC-based liquid scintillation counting analysis
Assay type: ADME, organism-based
Parameters: dose 0.5 mg/kg, route intravenous
Study Conditions: in vivo
Recorded Metric: clearance
Please answer using the number first and the unit second.

q: Item N[14c]1[14cH][14cH][14c](OS(=O)(=O)O)[14cH][14c]1Cl has what recorded clearance?
a: 10.5 mL/min/kg
